# System Tested: human i-20S β5i (Homo sapiens, UniProt P28062)
# Sequence (P28062 73-276): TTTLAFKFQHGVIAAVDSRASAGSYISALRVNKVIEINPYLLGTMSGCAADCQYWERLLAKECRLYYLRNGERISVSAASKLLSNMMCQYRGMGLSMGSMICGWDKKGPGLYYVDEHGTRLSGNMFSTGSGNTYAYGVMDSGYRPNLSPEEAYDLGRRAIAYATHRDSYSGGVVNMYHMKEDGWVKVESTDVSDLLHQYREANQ
# Sequence (P20618 29-241 partner): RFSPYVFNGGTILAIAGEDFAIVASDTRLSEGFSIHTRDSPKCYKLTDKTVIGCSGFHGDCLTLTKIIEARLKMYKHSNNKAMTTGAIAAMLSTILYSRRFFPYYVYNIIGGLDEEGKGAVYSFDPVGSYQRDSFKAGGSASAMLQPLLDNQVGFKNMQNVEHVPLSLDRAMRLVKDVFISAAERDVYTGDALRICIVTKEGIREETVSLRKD
# Experiment: fluorogenic peptidase assay
# Format: biochemical
# Assay Context: 15 μM Ac-ANW-AMC; 0.4 nM i-20S; 0.02% SDS; pH 7.5; β5i active site
pIC50: −log10 of the molar value.

Record Smiles	pIC50
CC(C)(C)NC(=O)C[C@H](NC(=O)CCCNC(=O)OC(C)(C)C)C(=O)NCCNC(=O)c1cc(-c2ccccc2F)ccc1F	6.70
C[C@H]1[C@@H](CC(=O)NCCCC(=O)N[C@@H](CC(=O)NC(C)(C)C)C(=O)NCCNC(=O)c2cc(-c3ccccc3F)ccc2F)O[C@@H]2O[C@@]3(C)CC[C@H]4[C@H](C)CC[C@@H]1[C@@]24OO3	6.70
C[C@H]1[C@@H](CC(=O)N[C@@H](CC(=O)NC(C)(C)C)C(=O)NCCNC(=O)c2cc(-c3ccccc3F)ccc2F)O[C@@H]2O[C@@]3(C)CC[C@H]4[C@H](C)CC[C@@H]1[C@@]24OO3	6.19
C[C@H]1[C@@H](CC(=O)NCC(=O)N[C@@H](CC(=O)NC(C)(C)C)C(=O)NCCNC(=O)c2cc(-c3ccccc3F)ccc2F)O[C@@H]2O[C@@]3(C)CC[C@H]4[C@H](C)CC[C@@H]1[C@@]24OO3	7.14
C[C@H]1[C@@H](CC(=O)NCCC(=O)N[C@@H](CC(=O)NC(C)(C)C)C(=O)NCCNC(=O)c2cc(-c3ccccc3F)ccc2F)O[C@@H]2O[C@@]3(C)CC[C@H]4[C@H](C)CC[C@@H]1[C@@]24OO3	6.59

----------
# System Tested: human i-20S β5i (Homo sapiens, UniProt P28062)
# Assay Context: read-out: IC50 (nM) i-20S; inhibitor
Here the recorded IC50 is given for each entry.

Compound	System Tested	Comparative Sign	IC50, nM
C[C@H]1[C@H](OC(=O)CCC(=O)N[C@@H](CC(=O)NC(C)(C)C)C(=O)NCCNC(=O)c2cc(-c3ccccc3F)ccc2F)O[C@@H]2O[C@@]3(C)CC[C@H]4[C@H](C)CC[C@@H]1[C@@]24OO3	human i-20S β5i (Homo sapiens, UniProt P28062)	=	158
C[C@H]1[C@H](OC(=O)CCC(=O)O)O[C@@H]2O[C@@]3(C)CC[C@H]4[C@H](C)CC[C@@H]1[C@@]24OO3 [Artesunate]	human i-20S β5i (Homo sapiens, UniProt P28062)	>	100000
CC(C)(C)NC(=O)C[C@H](NC(=O)CCC(=O)O)C(=O)NCCNC(=O)c1cc(-c2ccccc2F)ccc1F	human i-20S β5i (Homo sapiens, UniProt P28062)	=	3490
C[C@H]1[C@H](OC(=O)CCC(=O)N[C@@H](CC(=O)NC(C)(C)C)C(=O)NCCNC(=O)c2cc(-c3ccccc3)ccn2)O[C@@H]2O[C@@]3(C)CC[C@H]4[C@H](C)CC[C@@H]1[C@@]24OO3	human i-20S β5i (Homo sapiens, UniProt P28062)	=	1100

----------
Here the recorded pIC50 is given for each entry.
# System Tested: Pf20S β5 (Plasmodium falciparum, UniProt Q8IJT1)
# Experiment: biochemical
pIC50: −log10 of the molar value.

Compound	Comparative Sign	pIC50
CC(C)(C)NC(=O)C[C@H](NC(=O)CCC(=O)O)C(=O)NCCNC(=O)c1cc(-c2ccccc2F)ccc1F	=	8.22
C[C@H]1[C@H](OC(=O)CCC(=O)O)O[C@@H]2O[C@@]3(C)CC[C@H]4[C@H](C)CC[C@@H]1[C@@]24OO3 [Artesunate]	<	4.00
C[C@H]1[C@H](OC(=O)CCC(=O)N[C@@H](CC(=O)NC(C)(C)C)C(=O)NCCNC(=O)c2cc(-c3ccccc3F)ccc2F)O[C@@H]2O[C@@]3(C)CC[C@H]4[C@H](C)CC[C@@H]1[C@@]24OO3	=	8.26
C[C@H]1[C@H](OC(=O)CCC(=O)N[C@@H](CC(=O)NC(C)(C)C)C(=O)NCCNC(=O)c2cc(-c3ccccc3)ccn2)O[C@@H]2O[C@@]3(C)CC[C@H]4[C@H](C)CC[C@@H]1[C@@]24OO3	=	7.87

----------
Here the recorded IC50 is given for each entry.
# System Tested: Pf20S β5 (Plasmodium falciparum, UniProt Q8IJT1)
# Sequence (Q8IJT1 61-271): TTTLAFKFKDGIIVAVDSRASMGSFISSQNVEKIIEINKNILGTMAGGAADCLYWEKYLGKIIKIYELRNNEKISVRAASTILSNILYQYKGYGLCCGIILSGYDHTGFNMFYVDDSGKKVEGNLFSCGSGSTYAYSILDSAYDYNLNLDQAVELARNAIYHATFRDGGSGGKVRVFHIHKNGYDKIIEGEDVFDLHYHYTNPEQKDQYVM
# Sequence (A0A5K1K7U1 29-240 partner): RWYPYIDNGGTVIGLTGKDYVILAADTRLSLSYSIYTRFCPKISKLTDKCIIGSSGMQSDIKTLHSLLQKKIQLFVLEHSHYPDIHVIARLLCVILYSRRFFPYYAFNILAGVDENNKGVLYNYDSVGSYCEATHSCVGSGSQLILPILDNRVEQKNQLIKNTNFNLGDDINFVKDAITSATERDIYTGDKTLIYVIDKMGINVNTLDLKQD
# Experiment: fluorogenic peptidase assay
# Format: biochemical

Record Smiles	System Tested	IC50
C[C@H]1[C@H](OC(=O)CCC(=O)N[C@@H](CC(=O)NC(C)(C)C)C(=O)NCCNC(=O)c2cc(-c3ccccc3)ccn2)O[C@@H]2O[C@@]3(C)CC[C@H]4[C@H](C)CC[C@@H]1[C@@]24OO3	Pf20S β5 (Plasmodium falciparum, UniProt Q8IJT1)	6 nM
C[C@H]1[C@@H](CC(=O)N[C@@H](CC(=O)NC(C)(C)C)C(=O)NCCNC(=O)c2cc(-c3ccccc3F)ccc2F)O[C@@H]2O[C@@]3(C)CC[C@H]4[C@H](C)CC[C@@H]1[C@@]24OO3	Pf20S β5 (Plasmodium falciparum, UniProt Q8IJT1)	63.2 nM
C[C@H]1[C@H](OC(=O)CCC(=O)N[C@@H](CC(=O)NC(C)(C)C)C(=O)NCCNC(=O)c2cc(-c3ccccc3F)ccc2F)O[C@@H]2O[C@@]3(C)CC[C@H]4[C@H](C)CC[C@@H]1[C@@]24OO3	Pf20S β5 (Plasmodium falciparum, UniProt Q8IJT1)	2 nM
C[C@H]1[C@@H](CC(=O)NCCC(=O)N[C@@H](CC(=O)NC(C)(C)C)C(=O)NCCNC(=O)c2cc(-c3ccccc3F)ccc2F)O[C@@H]2O[C@@]3(C)CC[C@H]4[C@H](C)CC[C@@H]1[C@@]24OO3	Pf20S β5 (Plasmodium falciparum, UniProt Q8IJT1)	2.4 nM

----------
# System Tested: human c-20S β5c (Homo sapiens)
# Sequence (P28074 60-263, one chain of several): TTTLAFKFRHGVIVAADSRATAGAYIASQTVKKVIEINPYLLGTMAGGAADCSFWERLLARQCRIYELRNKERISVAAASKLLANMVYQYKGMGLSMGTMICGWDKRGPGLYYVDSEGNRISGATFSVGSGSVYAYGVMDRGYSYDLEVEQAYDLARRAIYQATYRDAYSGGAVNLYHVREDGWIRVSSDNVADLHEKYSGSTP
# Experiment: fluorogenic peptidase assay
# Type: biochemical
# Assay Context: 25 μM suc-LLVY-AMC; 0.2 nM c-20S; 0.02% SDS; pH 7.5; β5c active site

Record Smiles	IC50 (nM)
C[C@H]1[C@@H](CC(=O)NCCCC(=O)N[C@@H](CC(=O)NC(C)(C)C)C(=O)NCCNC(=O)c2cc(-c3ccccc3F)ccc2F)O[C@@H]2O[C@@]3(C)CC[C@H]4[C@H](C)CC[C@@H]1[C@@]24OO3	890
CC(C)(C)NC(=O)C[C@H](NC(=O)CCCNC(=O)OC(C)(C)C)C(=O)NCCNC(=O)c1cc(-c2ccccc2F)ccc1F	2000
C[C@H]1[C@@H](CC(=O)NCC(=O)N[C@@H](CC(=O)NC(C)(C)C)C(=O)NCCNC(=O)c2cc(-c3ccccc3F)ccc2F)O[C@@H]2O[C@@]3(C)CC[C@H]4[C@H](C)CC[C@@H]1[C@@]24OO3	210
C[C@H]1[C@@H](CC(=O)N[C@@H](CC(=O)NC(C)(C)C)C(=O)NCCNC(=O)c2cc(-c3ccccc3F)ccc2F)O[C@@H]2O[C@@]3(C)CC[C@H]4[C@H](C)CC[C@@H]1[C@@]24OO3	3600
